Test system: MRP1 cells, doxorubicin viability shift, 10 uM compound
test-protocol: viability protection against doxorubicin, MRP-1 line – cell-based, doxorubicin EC50 shift, dose response (AID 844)
Classes are defined on fold increase in Dox EC50 with ranges low (below 0.7), mid (0.7 to below 1), high (1 or more)

Completed entries (count: 3):
{"molecule": "CCCCCCCC1CC(CSc2ncn[nH]2)OC1=O (configuration not stated)", "tested-on": "MRP1 cells, doxorubicin viability shift, 10 uM compound", "class-assignment": "mid"}
{"molecule": "Oc1c(C=C2N=c3ccccc3=N2)sc(=S)n1-c1ccc(F)cc1", "tested-on": "MRP1 cells, doxorubicin viability shift, 10 uM compound", "class-assignment": "low"}
{"molecule": "Cc1ccc(NC(=O)CSc2nnc(C)n2-c2ccccc2)cc1", "tested-on": "MRP1 cells, doxorubicin viability shift, 10 uM compound", "class-assignment": "high"}

## Task Classify this molecule: "CCn1c(C)cc(/C=C2\NC(=O)N(Cc3ccc(Cl)cc3)C2=O)c1C"
## Result high

## Task Form field 'band' for O=C1CC(N2CCC(c3nc4ccccc4o3)CC2)C(=O)N1c1cc(Cl)cc(Cl)c1 (configuration not stated)
## Result high

## Task Exam item: assign "N#C/C(=N\Nc1ccccc1)C(=N)N1CCOCC1" to the correct category.
## Result high

###

System: MRP1 cells, doxorubicin viability shift, 10 uM compound
test-protocol: viability protection against doxorubicin, MRP-1 line – cell-based, doxorubicin EC50 shift, dose response (AID 844)
Kindly apply the following: 1.0 if fold increase in Dox EC50 is less than 0.7, 0.0 in every other case.

Look over these answered cases.
{"compound": "COc1cc(NS(=O)(=O)c2ccc(C)cc2)ccc1-n1cnnn1", "class-assignment": 0.0}
{"compound": "CCOc1ccc(C2CC(c3ccc(F)cc3)Nc3nc(N)nn32)cc1 (centres undefined)", "class-assignment": 1.0}
{"compound": "N#Cc1nc(COc2ccc(Br)cc2)oc1N1CCCC1", "class-assignment": 0.0}
{"compound": "COc1ccc(C(=O)NCc2ccc(-c3nc4ccccc4s3)cc2)cc1", "class-assignment": 0.0}

## Task In the record for "CCOc1ccc(OCC)c(-c2c(=O)n(OCc3ccc(Cl)cc3)c3ccccc3[n+]2[O-])c1" , is fold increase in Dox EC50 less than 0.7?
## Result 1.0

###

Test system: MRP1 cells, doxorubicin viability shift, 10 uM compound
test-protocol: viability protection against doxorubicin, MRP-1 line – cell-based, doxorubicin EC50 shift, dose response (AID 844)
Overview of recorded fold increase in Dox EC50 for various molecules
Field format: numeric only.

{"molecule": "CC(C)CCC1CC(CSC(=N)N)OC1=O (stereo unspecified)", "reported": 0.68}
{"molecule": "Nc1nc2n(n1)C(c1cccs1)CC(c1ccc(Br)cc1)N2 (stereo unspecified)", "reported": 0.91}
{"molecule": "N#CC1=C2C=Cc3ccccc3N2CCCC1=O", "reported": 1.28}
{"molecule": "CCC(C)c1ccc(O)c(NC(=O)c2ncn[nH]2)c1 (stereo unspecified)", "reported": 0.97}
{"molecule": "O=[N+]([O-])c1ccc(N/N=C/c2ccccc2)c(F)c1", "reported": 0.64}

Consider the record given below.
## Task Which fold increase in Dox EC50 is listed for "Cc1ccc(N=Nc2c(N)[nH]n3c(=O)cc(-c4ccccc4)nc23)cc1" ?
## Result 0.08

###

System: MRP1 cells, doxorubicin viability shift, 10 uM compound
test-protocol: viability protection against doxorubicin, MRP-1 line – cell-based, doxorubicin EC50 shift, dose response (AID 844)
measurement-type: fold increase in Dox EC50
Write no unit; give the number alone.

Worked set:
{"compound": "Cc1ccc2nc(Nc3nc(CSc4nc5ccccc5s4)cc(=O)[nH]3)nc(C)c2c1", "fold increase in Dox EC50": 1.08}
{"compound": "N#Cc1c(-c2ccccc2)nc(SCC(=O)N(c2ccccc2)c2ccccc2)[nH]c1=O", "fold increase in Dox EC50": 1.08}
{"compound": "O=C1OC(Nc2ccccn2)c2ccccc21 (centres undefined)", "fold increase in Dox EC50": 0.81}
{"compound": "CCOC(=O)/C(=N\\Nc1ccccc1Cl)N1CCN(Cc2ccccc2)CC1", "fold increase in Dox EC50": 0.63}
{"compound": "COc1ccc(OCc2nnc(SCC(=O)N3c4ccccc4Sc4ccc(Cl)cc43)o2)cc1", "fold increase in Dox EC50": 1.1}

## Task I have this compound here, Cc1noc(/C=C/N(C)C)c1S(=O)(=O)N1CCCC(C(=O)NC2CCCCC2C)C1 (centres undefined) , and I need its recorded fold increase in Dox EC50.
## Result 0.92

## Task Quick check: fold increase in Dox EC50 of Cc1noc(/C=C/N(C)C)c1S(=O)(=O)N1CCCC(C(=O)NCc2cccs2)C1 (centres undefined) ?
## Result 1.32

## Task For the compound shown here, O=C(CSc1ncn[nH]1)N1N=C2/C(=C/c3ccco3)CCCC2C1c1ccco1 (centres undefined) , give the reported fold increase in Dox EC50.
## Result 0.4

## Task For the compound Cc1ccc(CC2S/C(=C(/C#N)C(=O)N3CCOCC3)N(c3ccccc3)C2=O)cc1 (centres undefined) , what fold increase in Dox EC50 is on record?
## Result 1.18

###

Tested on: MRP1 cells, doxorubicin viability shift, 10 uM compound
test-protocol: viability protection against doxorubicin, MRP-1 line – cell-based, doxorubicin EC50 shift, dose response (AID 844)
measurement-type: fold increase in Dox EC50
Give the value as a plain number.

Worked cases, answers included:
{"molecule": "CCN(CC)S(=O)(=O)c1ccc(NN=C(C#N)C#N)cc1", "tested-on": "MRP1 cells, doxorubicin viability shift, 10 uM compound", "fold increase in Dox EC50": 0.68}
{"molecule": "COc1ccccc1C1C(C(=O)c2sc(C)nc2C)=C(O)C(=O)N1CCN1CCOCC1 (stereo not given)", "tested-on": "MRP1 cells, doxorubicin viability shift, 10 uM compound", "fold increase in Dox EC50": 0.71}
{"molecule": "O=C(Nc1ncc(Cc2ccc(C(F)(F)F)cc2)s1)c1ccc(-c2cccc([N+](=O)[O-])c2)o1", "tested-on": "MRP1 cells, doxorubicin viability shift, 10 uM compound", "fold increase in Dox EC50": 0.71}

## Task What value of fold increase in Dox EC50 has been recorded for this entry: "CC(/C=C1\SC(=O)N(CC(=O)Nc2ccc(O)cc2)C1=O)=C\c1ccccc1"
## Result 0.68

## Task Returns the measured fold increase in Dox EC50 for the input molecule. Input: "Cc1ccc(/C=C2\SC(=S)N(CCCC(=O)Nc3ccccn3)C2=O)cc1"
## Result 0.82

## Task I have this molecule here, "CCCCOc1ccc(/C=C/C(=O)Nc2ccc([N+](=O)[O-])cc2C)cc1" , and I need its recorded fold increase in Dox EC50.
## Result 1.17

## Task Returns the measured fold increase in Dox EC50 for the input molecule. Input: Cc1ccc(-c2nnn(CC(=O)N(c3ccccc3F)C(C(=O)NCC3CCCO3)c3c[nH]c4ccccc34)n2)cc1 (stereo not given)
## Result 0.5

## Task Which fold increase in Dox EC50 value is on record for "O=C(CCc1ccccc1)Nc1nnc(-c2ccc3c(c2)CCCC3)o1" ?
## Result 0.25

## Task Request the reported fold increase in Dox EC50 associated with "COc1ccc(-c2ocnc2C(=O)Nc2ccccc2N2CCCCC2)cc1"
## Result 0.81

## Task So what does the record say about fold increase in Dox EC50 for "COc1ccc(C(=O)NCc2ccccc2)cc1S(=O)(=O)N1CCCc2ccccc21" ?
## Result 0.56
